Target: glucagon receptor (human) (UniProt P47871)
Sequence (P47871 26-477): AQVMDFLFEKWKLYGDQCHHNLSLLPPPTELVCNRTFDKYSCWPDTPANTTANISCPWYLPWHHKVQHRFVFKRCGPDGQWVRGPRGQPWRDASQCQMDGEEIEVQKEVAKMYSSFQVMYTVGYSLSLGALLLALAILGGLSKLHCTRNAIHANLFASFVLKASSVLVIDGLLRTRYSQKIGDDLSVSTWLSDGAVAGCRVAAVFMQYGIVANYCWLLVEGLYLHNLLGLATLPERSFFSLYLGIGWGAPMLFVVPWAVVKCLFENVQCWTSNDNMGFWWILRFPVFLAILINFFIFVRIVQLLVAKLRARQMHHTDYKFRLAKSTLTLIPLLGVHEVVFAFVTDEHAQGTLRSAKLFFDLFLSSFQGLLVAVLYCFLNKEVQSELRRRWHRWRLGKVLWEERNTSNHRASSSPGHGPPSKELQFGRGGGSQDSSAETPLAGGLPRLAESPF
No end group written: not given here.
ASSAY ENDPOINT: EC50 GCGR (nM); cAMP assay on CHO-JumpIn cells with human GCGR

Answered examples (5):
HSQGTFTSDYSKYLDSRRAQDFVQWLINY-NH2 [Peptide 13] ... 0.078
HSQGTFTSDYSKYLDELRAYDFVQWLMNT-NH2 [Peptide 10] ... 0.057
HSQGTFTSDYSKYLDSRMAYDFVQWLMNT-NH2 [Peptide 33] ... 0.079
HSQGTFTSDYSKYLDSKRAHDFVQWLLNT-NH2 [Peptide 24] ... 0.026
HSQGTFTSDYSKYLDSLMAQDFVQWLMST-NH2 [Peptide 5] ... 0.025

(a) HSQGTFLHDYYYYLDSRRAQDFVQWLMDT-NH2 [Peptide 17]
(b) HSQGTFTSDYIKLLDSRRAQDFVQWLMNT-NH2 [Peptide 7]
(c) HSQGTFTSDYSKYLDSRRAQDFVQWLLDS-NH2 [Peptide 35]
(d) HSQGIFFSDYSKYLDSRRAQDFVQWLMNT-NH2 [Peptide 30]
(e) HSVGNFWSDYSKYLDSRRAQDFVQWLMLT-NH2 [Peptide 1]
## Input hey, can you rank those binders up there by EC50 GCGR (nM); cAMP assay on CHO-JumpIn cells with human GCGR? biggest number first please Submit the labels in the order that the ranking request calls for.
## Output e, a, b, d, c

(a) HSQGTFTSDYSKYLDIGRAQDFVQWLLNT-NH2 [Peptide 4]
(b) KALGQFTFTSDYSKYLDSRRAQDFVQWLMNT-NH2 [Peptide 21]
(c) HSQGTFTSDYSKYLDSRRAQDFVDWLINS-NH2 [Peptide 28]
## Input With regard to EC50 GCGR (nM); cAMP assay on CHO-JumpIn cells with human GCGR, arrange the entries in ascending order, please. State the ranking by listing the labels in the requested order.
## Output c, a, b
